assayMethodText: Restrictive medium S. cerevisiae growth inhibition, OD615, pilot screen of yeast lifespan reduction project, restrictive growth control (AID 706);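 further: modified DeaD lifespan yeast strain shifted to restrictive glucose medium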
condition: OD615, 48 h, at 10 µM, stronger effect = higher value
endpoint: growth inhibition (%)
Numbers only, in %.

Would you please look over these solved cases?
COCCn1c(C)cc(C(=O)CSc2nnc3ccccn23)c1C = 3.52
COc1ccc(C2CC(c3cccc(C)c3)n3nc(N)nc3N2)cc1 (configuration not stated) = 9.63
O=C(Nc1ccncc1)c1cccs1 = 4.99

// each listed compound needs a value for growth inhibition
1. COc1ccc(NC(=O)CSc2nnc(-c3ccccn3)n2N)cc1
2. COc1cc(NS(=O)(=O)c2ccc(NC(=O)C34CC5CC(CC(C5)C3)C4)cc2)ncn1
3. CNC(=O)CN1C(=O)CSc2nc(C)cc(C)c21

Return:
13.7
-24.6
-6.29

Ref: PubChem BioAssay
